System: rabbit eye cornea
Experiment: Local anesthetic activity, rabbit eye cornea terminal anesthesia test
Format: in vivo
Details: rabbit corneal model, 1% aqueous solution; percentage of the anesthetic activity of lidocaine (=100%)
QUANTITY_MEASURED: Duration of Complete Anesthesia

**Query** Form entry - test system: rabbit eye cornea; read-out: Duration of Complete Anesthesia; compound: COc1cc2c(cc1OC)C(c1cc(Br)c(O)c(OC)c1)NCC2 (centres unmarked)
**Result** +140%

**Query** Same question, COc1cc2c(cc1OC)C(c1ccc3c(c1)OCO3)NCC2 (centres unmarked) this time
**Result** +80%

**Query** Same question, COc1cc2c(cc1OC)C(c1ccccc1)NCC2 (centres unmarked) this time
**Result** +50%

**Query** Same question, COc1ccc(C2NCCc3cc(OC)c(OC)cc32)cc1OC (centres unmarked) this time
**Result** +60%

**Query** Same question, COc1cc2c(cc1OC)C(c1cccc(N)c1)NCC2 (centres unmarked) this time
**Result** +0%

====

Experiment: Acute toxicity and resorptive action in white mice, intragastric administration
Assay type: in vivo
Conditions: mouse, in vivo, po, intragastric administration, N = 10, Litchfield–Wilcoxon
QUANTITY_MEASURED: LD50 (mg/kg)
Could you give me the number in mg/kg? Just the number is fine.

**Query** Param item = COc1cc(Br)c(C2NCCc3cc(OC)c(OC)cc32)cc1OC (centres unmarked) [Compound 3g] ; retrieve measured LD50.
**Result** 290

**Query** Same question, COc1ccc(C2NCCc3cc(OC)c(OC)cc32)cc1OC (centres unmarked) [Compound 3d] this time
**Result** 670

**Query** Same question, COc1cc2c(cc1OC)C(c1ccc([N+](=O)[O-])cc1)NCC2 (centres unmarked) [Compound 3m] this time
**Result** 1950

**Query** Same question, COc1cc2c(cc1OC)C(c1ccc(N)cc1)NCC2 (centres unmarked) [Compound 4a] this time
**Result** 1050

**Query** Same question, COc1ccc(C2NCCc3cc(OC)c(OC)cc32)cc1O (centres unmarked) [Compound 3c] this time
**Result** 980

**Query** Same question, COc1cc2c(cc1OC)C(c1cccc(N)c1)NCC2 (centres unmarked) [Compound 4b] this time
**Result** 750

**Query** Same question, COc1cc2c(cc1OC)C(c1ccc3c(c1)OCO3)NCC2 (centres unmarked) [Compound 3i] this time
**Result** 280

**Query** Same question, COc1cc2c(cc1OC)C(c1cccc([N+](=O)[O-])c1)NCC2 (centres unmarked) [Compound 3n] this time
**Result** 460

**Query** Same question, COc1cc(Br)c(C2NCCc3cc(OC)c(OC)cc32)cc1O (centres unmarked) [Compound 3h] this time
**Result** 550

**Query** Same question, COc1cc2c(cc1OC)C(c1ccccc1OC)NCC2 (centres unmarked) [Compound 3p] this time
**Result** 300

**Query** Same question, COc1cc2c(cc1OC)C(c1ccccc1O)NCC2 (centres unmarked) [Compound 3b] this time
**Result** 375

**Query** Same question, COc1cc2c(cc1OC)C(c1cc3c(cc1Cl)OCO3)NCC2 (centres unmarked) [Compound 3k] this time
**Result** 520

**Query** Same question, COc1cc2c(cc1OC)C(c1ccc(N(C)C)cc1)NCC2 (centres unmarked) [Compound 3q] this time
**Result** 1250

**Query** Same question, COc1cc2c(cc1OC)C(c1cc(Br)ccc1O)NCC2 (centres unmarked) [Compound 3f] this time
**Result** 305

**Query** Same question, COc1cc2c(cc1OC)C(c1ccc(O)c(Br)c1)NCC2 (centres unmarked) [Compound 3e] this time
**Result** 3850

**Query** Same question, COc1cc2c(cc1OC)C(c1cc(Br)c(O)c(OC)c1)NCC2 (centres unmarked) [Compound 3l] this time
**Result** 1560

**Query** Same question, COc1cc2c(cc1OC)C(c1ccc(Cl)cc1)NCC2 (centres unmarked) [Compound 3r] this time
**Result** 740

**Query** Same question, COc1cc2c(cc1OC)C(c1ccccc1)NCC2 (centres unmarked) [Compound 3a] this time
**Result** 280

**Query** Same question, COc1cc2c(cc1OC)C(c1cc3c(cc1Br)OCO3)NCC2 (centres unmarked) [Compound 3j] this time
**Result** 730

**Query** Same question, COc1cc2c(cc1OC)C(c1cccc(Br)c1)NCC2 (centres unmarked) [Compound 3o] this time
**Result** 710

====

I'd appreciate it if you could supply Duration of Complete Anesthesia values for the items below.
Test system: rabbit eye cornea
Experiment: Local anesthetic activity, rabbit eye cornea terminal anesthesia test
Type: in vivo
Conditions: rabbit corneal model, 1% aqueous solution; percentage of the anesthetic activity of lidocaine (=100%)

**Query** Param item = COc1cc2c(cc1OC)C(c1cc3c(cc1Br)OCO3)NCC2 (stereo not drawn) ; retrieve measured Duration of Complete Anesthesia.
**Result** +90%

**Query** Same question, COc1cc2c(cc1OC)C(c1ccccc1OC)NCC2 (stereo not drawn) this time
**Result** +300%

**Query** Same question, COc1cc2c(cc1OC)C(c1ccc(Cl)cc1)NCC2 (stereo not drawn) this time
**Result** +150%

**Query** Same question, COc1cc2c(cc1OC)C(c1ccc(N(C)C)cc1)NCC2 (stereo not drawn) this time
**Result** +220%

**Query** Same question, COc1cc2c(cc1OC)C(c1cccc([N+](=O)[O-])c1)NCC2 (stereo not drawn) this time
**Result** +260%

**Query** Same question, COc1cc2c(cc1OC)C(c1ccc([N+](=O)[O-])cc1)NCC2 (stereo not drawn) this time
**Result** +80%

**Query** Same question, COc1ccc(C2NCCc3cc(OC)c(OC)cc32)cc1O (stereo not drawn) this time
**Result** +40%

**Query** Same question, COc1cc2c(cc1OC)C(c1cc3c(cc1Cl)OCO3)NCC2 (stereo not drawn) this time
**Result** +90%

**Query** Same question, COc1cc2c(cc1OC)C(c1ccccc1O)NCC2 (stereo not drawn) this time
**Result** +50%

====

System: rabbit eye cornea
Assay: Local anesthetic activity, rabbit eye cornea terminal anesthesia test
Assay type: in vivo
Conditions: rabbit corneal model, 1% concentration
QUANTITY_MEASURED: Duration of complete anesthesia, times longer than lidocaine (times)
Could you give me the number in times? Just the number is fine.

**Query** Form entry - test system: rabbit eye cornea; read-out: Duration of complete anesthesia, times longer than lidocaine; compound: COc1cc2c(cc1OC)C(c1cccc([N+](=O)[O-])c1)NCC2 (stereo not drawn)
**Result** 2.6

**Query** Same question, COc1cc2c(cc1OC)C(c1cc(Br)c(O)c(OC)c1)NCC2 (stereo not drawn) this time
**Result** 1.4

**Query** Same question, COc1cc2c(cc1OC)C(c1ccc(N(C)C)cc1)NCC2 (stereo not drawn) this time
**Result** 2.2

**Query** Same question, COc1cc2c(cc1OC)C(c1ccccc1OC)NCC2 (stereo not drawn) this time
**Result** 3.0

**Query** Same question, COc1cc2c(cc1OC)C(c1cc(Br)ccc1O)NCC2 (stereo not drawn) this time
**Result** 1.6

**Query** Same question, COc1cc(Br)c(C2NCCc3cc(OC)c(OC)cc32)cc1O (stereo not drawn) this time
**Result** 1.7

====

I'd appreciate it if you could supply Duration of Complete Anesthesia values for the items below.
System: rabbit eye cornea
Test: Local anesthetic activity, rabbit eye cornea terminal anesthesia test
Format: in vivo
Conditions: rabbit corneal model, 1% aqueous solution; percentage of the anesthetic activity of lidocaine (=100%)

**Query** Param item = COc1cc2c(cc1OC)C(c1cccc(Br)c1)NCC2 (centres unmarked) ; retrieve measured Duration of Complete Anesthesia.
**Result** +130%

**Query** Same question, COc1cc(Br)c(C2NCCc3cc(OC)c(OC)cc32)cc1OC (centres unmarked) this time
**Result** +90%

**Query** Same question, COc1cc2c(cc1OC)C(c1ccc(N)cc1)NCC2 (centres unmarked) this time
**Result** +40%

**Query** Same question, COc1cc(Br)c(C2NCCc3cc(OC)c(OC)cc32)cc1O (centres unmarked) this time
**Result** +170%

**Query** Same question, COc1cc2c(cc1OC)C(c1ccc(O)c(Br)c1)NCC2 (centres unmarked) this time
**Result** +49%

====

I'd appreciate it if you could supply Decrease of acute toxicity compared with 3a values for the items below.
Tested on: white mice
Test: Acute toxicity and resorptive action in white mice, intragastric administration
Assay type: in vivo
Conditions: intragastric, relative to parent compound 3a

**Query** Param item = COc1cc2c(cc1OC)C(c1ccc(N)cc1)NCC2 (stereo not shown) [Compound 4a] ; retrieve measured Decrease of acute toxicity compared with 3a.
**Result** 3.75 fold

**Query** Same question, COc1cc2c(cc1OC)C(c1cc3c(cc1Br)OCO3)NCC2 (stereo not shown) [Compound 3j] this time
**Result** 2.5 fold

**Query** Same question, COc1cc2c(cc1OC)C(c1cccc(Br)c1)NCC2 (stereo not shown) [Compound 3o] this time
**Result** 2.5–2.6 fold

**Query** Same question, COc1cc2c(cc1OC)C(c1ccc(Cl)cc1)NCC2 (stereo not shown) [Compound 3r] this time
**Result** 2.5–2.6 fold

**Query** Same question, COc1cc2c(cc1OC)C(c1cc(Br)c(O)c(OC)c1)NCC2 (stereo not shown) [Compound 3l] this time
**Result** 5.6 fold

**Query** Same question, COc1ccc(C2NCCc3cc(OC)c(OC)cc32)cc1O (stereo not shown) [Compound 3c] this time
**Result** 3.5 fold

**Query** Same question, COc1cc2c(cc1OC)C(c1ccc(O)c(Br)c1)NCC2 (stereo not shown) [Compound 3e] this time
**Result** 13.75 fold

**Query** Same question, COc1cc2c(cc1OC)C(c1cc3c(cc1Cl)OCO3)NCC2 (stereo not shown) [Compound 3k] this time
**Result** 1.86 fold

**Query** Same question, COc1cc2c(cc1OC)C(c1ccc(N(C)C)cc1)NCC2 (stereo not shown) [Compound 3q] this time
**Result** ~4.5 fold

**Query** Same question, COc1ccc(C2NCCc3cc(OC)c(OC)cc32)cc1OC (stereo not shown) [Compound 3d] this time
**Result** 2.5–2.6 fold
